species on record: Cavia porcellus; test: Molar concentration needed to […] by 50% of maximal stimulation; format: functional
endpoint: IC50 (µM)
Please reply with the bare figure in µM and do not write the unit itself.

Inquiry: Need IC50, item COc1ccc([C@@H]2Sc3ccccc3N(CCN(C)C)C(=O)[C@@H]2OC(C)=O)cc1 [DILTIAZEM]
Reply text: 0.059

====

test: Inhibitory concentration of [3H]- nitrendipine binding against guinea pig cerebral cortex membrane; assay type: functional, tissue-based, Cavia porcellus
// reported pIC50 per item
pIC50 (log units): -log10 of the concentration in mol/L.

Solved entries:
# compound, assay.value
rows = [
    ("COc1ccc(CCN(C)CCCOc2ccc(S(=O)(=O)c3c(C(C)C)cc4ccccn34)cc2)cc1OC", 9.66),
    ("COC(=O)C1=C(C)NC(C)=C(C(=O)OC)C1c1ccccc1[N+](=O)[O-] [NIFEDIPINE]", 8.60),
]

# ---- query compound ----
Inquiry: Need pIC50, item CC(C)c1c(S(=O)(=O)c2ccc(OCCCNC(C)(C)C)cc2)c2ccccc2n1C
Reply text: 6.94

====

// reported IC50 per item
species: Rattus norvegicus; test: Inhibition of [Ca2+] induced contraction of K+ depolarized rat aorta by 50%; assay type: functional
Express the reported value numerically, then name its unit.

# smiles.entry, IC50
records = [
    ("COc1ccc(CCN(C)CCCOc2ccc(S(=O)(=O)c3c(C(C)C)oc4ccccc34)cc2)cc1OC", "20.2 nM"),
    ("CCCc1oc2ccccc2c1S(=O)(=O)c1ccc(OCCCN(C)CCc2ccc(OC)c(OC)c2)cc1", "50.8 nM"),
    ("CCCCN(CCCC)CCCOc1ccc(S(=O)(=O)c2c(C(C)C)n(C)c3ccccc23)cc1", "24.1 nM"),
    ("CCCCN(CCCC)CCCOc1ccc(S(=O)(=O)c2c(C(C)C)nn3ccccc23)cc1", "31.1 nM"),
    ("COc1ccc(CN(C)CCCOc2ccc(S(=O)(=O)c3c(C(C)C)oc4ccccc34)cc2)cc1OC", "14.3 nM"),
    ("CCCCN(CCCC)CCCOc1ccc(S(=O)(=O)c2c(C(C)C)cc3ccccn23)cc1", "13.3 nM"),
    ("COc1cc(CCN(C)CCCOc2ccc(S(=O)(=O)c3c(C(C)C)c4ccccc4n3C)cc2)cc(OC)c1OC", "1.9 nM"),
    ("COc1ccc(CCN(C)CCCOc2ccc(S(=O)(=O)c3ccoc3C(C)C)cc2)cc1OC", "84.2 nM"),
]

Inquiry: Need IC50, item COc1cc(CCN(C)CCCOc2ccc(S(=O)(=O)c3c(C(C)C)c4ccccc4n3C)cc2)cc(OC)c1
Reply text: 16.4 nM

Inquiry: Try COc1ccc(CCN(C)CCCOc2ccc(S(=O)(=O)c3[nH]c4ccccc4c3C(C)C)cc2)cc1OC next.
Reply text: 37.5 nM

Inquiry: Try COc1ccc(CCNCCCOc2ccc(S(=O)(=O)c3c(C(C)C)oc4ccccc34)cc2)cc1OC next.
Reply text: 17.1 nM

Inquiry: Try COc1ccc(CCN(C)CCCOc2ccc(S(=O)(=O)c3c(C(C)C)n(C)c4ccccc34)cc2)cc1OC next.
Reply text: 4.3 nM

Inquiry: Try COc1cc(CCN(C)CCCOc2ccc(S(=O)(=O)c3c(C(C)C)oc4ccccc34)cc2)cc(OC)c1OC next.
Reply text: 5.8 nM

Inquiry: Try CC(C)c1nn2ccccc2c1S(=O)(=O)c1ccc(OCCCNC(C)(C)C)cc1 next.
Reply text: 168 nM

Inquiry: Try COc1ccc(CCN(C)CCCOc2ccc(S(=O)(=O)c3c(C(C)C)c4ccccc4n3C)cc2)cc1OC next.
Reply text: 3.7 nM

Inquiry: Try COc1ccc(CCN(C)CCCOc2ccc(S(=O)(=O)c3c(C(C)C)nn4ccccc34)cc2)cc1OC next.
Reply text: 18.8 nM

Inquiry: Try COc1ccc(CCN(C)CCCOc2ccc(S(=O)(=O)c3c(C(C)C)cc4ccccn34)cc2)cc1OC next.
Reply text: 5.9 nM

Inquiry: Try CC(C)c1nc2ccccc2cc1S(=O)(=O)c1ccc(OCCCNC(C)(C)C)cc1 next.
Reply text: 370 nM

Source of measurements: ChEMBL document CHEMBL1126689
